Data origin: patent US20100298141A1

Tested on: umbrella sedge
Assay: Test C flooded paddy test
Assay type: in vivo, Cyperus difformis
Details: Flood, 31 g ai/ha; scale 0 to 100 (0 no effect, 100 complete control)
Would you mind telling me the reported Plant response rating, Sedge, Umbrella of each entry?
Answers are plain numbers.

Recorded results for 4 molecules are shown here.
Molecule	Measurement
Cn1nc(C(F)(F)F)c(C(Cl)S(=O)(=O)c2cccc[n+]2[O-])c1Cl (centres unmarked) [Compound 12]	90
Cc1cc[n+]([O-])c([S+]([O-])C(C)c2c(C(F)(F)F)nn(C)c2Cl)c1 (mixture of isomers) [Compound 15]	85
Cn1nc(C(F)(F)F)c(CS(=O)(=O)c2ccc(Br)c[n+]2[O-])c1OC(F)F [Compound 13]	0
Cn1nc(C(F)(F)F)c(CS(=O)(=O)c2ccc(F)c[n+]2[O-])c1Cl [Compound 53]	20

We now examine a further molecule.
Report Plant response rating, Sedge, Umbrella under test system umbrella sedge for Cn1nc(C(F)(F)F)c(C[S+]([O-])c2cc(F)cc[n+]2[O-])c1Cl (racemic) [Compound 42] .
80

###

System: downy brome
Test: Test C pre-/postemergence test
Format: in vivo, Bromus tectorum
Settings: 62 g ai/ha, Preemergence; scale 0 to 100
Excerpt: Seeds of plant species selected from blackgrass (Alopecurus myosuroides), downy brome (Bromus tectorum), green foxtail (Setaria viridis), Italian ryegrass (Lolium multiflorum), wheat (Triticum aestivum), wild oat (Avena fatua), catchweed bedstraw (Galium aparine), Russian thistle (Salsola kali), […] […]
Test Readout: Bromegrass, Downy plant response rating
Answers are plain numbers.

Past entries and their recorded results:
Molecule	Bromegrass, Downy plant response rating
CC(Oc1c(C[S+]([O-])c2cccc[n+]2[O-])c(C(F)(F)F)nn1C)C(F)(F)F (stereo not drawn) [Compound 77]	45
Cn1nc(C(F)(F)F)c(CS(=O)(=O)c2ccc(Cl)c[n+]2[O-])c1Cl [Compound 18]	0
CCn1nc(C(F)(F)F)c(CS(=O)(=O)c2cc(C)cc[n+]2[O-])c1OCC(F)(F)F [Compound 64]	30
Cn1nc(C(F)(F)F)c(CS(=O)(=O)c2cc(C(C)(C)C)cc[n+]2[O-])c1OC(F)F [Compound 25]	0
CCc1cc[n+]([O-])c(S(=O)(=O)Cc2c(C(F)(F)F)nn(C)c2OCC(F)(F)F)c1 [Compound 60]	55

Give me Bromegrass, Downy plant response rating for each of these molecules, listed below.
1. Cc1cc[n+]([O-])c(S(=O)(=O)Cc2c(C(F)(F)F)nn(C)c2OC(C)C(F)(F)F)c1 (stereo not drawn) [Compound 96]
2. Cn1nc(C(F)(F)C(F)(F)F)c(C[S+]([O-])c2cccc[n+]2[O-])c1OCC(F)(F)F (stereo not drawn) [Compound 79]

1: 50; 2: 50

Hey, can you go through the list below and give me Bromegrass, Downy plant response rating for every item?
1. Cn1nc(C(F)(F)F)c(C(Cl)S(=O)(=O)c2cccc[n+]2[O-])c1OCC(F)(F)F (racemic) [Compound 36]
2. C#CCOc1c(CS(=O)(=O)c2cccc[n+]2[O-])c(C(F)(F)F)nn1C [Compound 103]

0
0

###

System: crabgrass
Assay: Test C pre-/postemergence test
Assay type: in vivo, Digitaria sanguinalis
Details: 125 g ai/ha, preemergence; scale 0 (no effect) to 100 (complete control)
Description: Seeds of plant species selected from blackgrass (Alopecurus myosuroides), downy brome (Bromus tectorum), green foxtail (Setaria viridis), Italian ryegrass (Lolium multiflorum), wheat (Triticum aestivum), wild oat (Avena fatua), catchweed bedstraw (Galium aparine), Russian thistle (Salsola kali), […] […]
Test Readout: Crabgrass, Large plant response rating
Numbers only.

Example entries begin here.
Molecule	Test Readout	Measurement
CC(Oc1c(C[S+]([O-])c2cccc[n+]2[O-])c(C(F)(F)F)nn1C)C(F)(F)F (stereo not shown)	Crabgrass, Large plant response rating	100
Cc1cc[n+]([O-])c(S(=O)(=O)Cc2c(C(F)(F)F)nn(C)c2OCC(F)F)c1	Crabgrass, Large plant response rating	100
CC(C)c1cc[n+]([O-])c([S+]([O-])Cc2c(C(F)(F)F)nn(C)c2OC(F)F)c1 (stereo not shown)	Crabgrass, Large plant response rating	100
CCc1cc[n+]([O-])c(S(=O)(=O)Cc2c(C(F)(F)F)nn(C)c2OC(F)F)c1	Crabgrass, Large plant response rating	95
Cn1nc(C(F)(F)F)c(C[S+]([O-])c2ccc(Cl)c[n+]2[O-])c1OCC(F)(F)F (racemic)	Crabgrass, Large plant response rating	100
CCc1cc[n+]([O-])c(S(=O)(=O)Cc2c(C(F)(F)F)nn(C)c2OCC(F)(F)F)c1	Crabgrass, Large plant response rating	100

Hi! Can you tell me Crabgrass, Large plant response rating for each of these molecules?
1. C#CCOc1c(C[S+]([O-])c2cccc[n+]2[O-])c(C(F)(F)F)nn1C (stereo not shown)
2. Cn1nc(C(F)(F)F)c(C[S+]([O-])c2ccc(F)c[n+]2[O-])c1OC(F)F (stereo not shown)
3. CCn1nc(C(F)(F)F)c(CS(=O)(=O)c2cccc[n+]2[O-])c1OCC(F)(F)F

1: 98; 2: 100; 3: 100
